Biological target: esterase of pig pancreas
Test: Inhibition of esterase (decomposition of p-nitrophenyl acetate by crude lipase preparation)
Details: p-nitrophenyl acetate as the substrate; read-out: concentration giving 50% inhibition of esterase
measurementType: IC50 (nM)
State just the number; it will be interpreted in nM.

Fetch value of IC50 on esterase of pig pancreas for CCCCCC=CCC=CCC(CC1OC(=O)C1CCCCCC)OC(=O)C(CC(N)=O)NC(C)=O (stereo not shown) [esterastin] .
0.041

Where do the numbers come from? From patent US4242453A.
